The reported measurements were obtained from PubChem BioAssay AID2127.

- EXPERIMENTAL_SYSTEM: UniProt Q8IUQ4
- ASSAY_EXPLANATION: Siah-1 peptide-binding antagonists, alternate label, dose response, artefact control for Siah-1 antagonist project, biochemical, fluorescence polarization, fluorescein-plectin (AID 2127)
- CONDITION_DETAILS: Siah-1/fluorescein-plectin binding
Activity calls are given as the source filed them.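 How the source made its calls: active means half-maximal inhibitory concentration below a set limit; inactive means the rest.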
Classes used: true for active, false for inactive

[[record]]
molecule = "CCC(C)N1C(=O)/C(=C/c2c(NCCCOC(C)C)nc3c(C)cccn3c2=O)SC1=S (stereo not given)"
class_name = "true"

[[record]]
molecule = "COC(=O)c1c(C(=O)OC)c2cccc3cc(-c4ccccc4)c4ccc1c4n32"
class_name = "false"

[[record]]
molecule = "COc1ccc(CCNC(=O)c2ccc(S(=O)(=O)N(C)c3ccccc3)cc2)cc1OC"
class_name = "false"

[[record]]
molecule = "COc1cc(CC(=O)NCc2ccc3c(c2)OCO3)cc(OC)c1OC"
class_name = "false"

[[record]]
molecule = "COc1ccc(CCNC(=O)CCC(=O)N2CCOc3ccc(C)cc32)cc1OC"
class_name = "false"


---

- EXPERIMENTAL_SYSTEM: UniProt:Q8IUQ4
- ASSAY_EXPLANATION: Siah-1 peptide-binding antagonists, alternate label, dose response, artefact control for Siah-1 antagonist project, biochemical, fluorescence polarization, fluorescein-plectin (AID 2127)
- CONDITION_DETAILS: Siah-1/fluorescein-plectin binding
Active and inactive are the calls of the source.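 Rule for the calls: active = half-maximal inhibitory concentration below a set limit; inactive = the rest.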
Possible outcomes: active, inactive

[[record]]
compound = "COc1cc(NS(=O)(=O)c2ccc(NC(=S)NC(=O)/C=C/c3ccc(F)cc3)cc2)ncn1"
class_name = "inactive"

[[record]]
compound = "Nc1ccc(O)c2c1C(=O)c1ccccc1C2=O"
class_name = "active"

[[record]]
compound = "Cc1ccc(C(=O)NC2CC3CCCC(C2)N3C(=O)NC2CCCCC2)cc1 (centres undefined)"
class_name = "inactive"

[[record]]
compound = "CN(C)CCOC(=O)CCc1ccccc1"
class_name = "inactive"

[[record]]
compound = "COC(=O)c1cccc(Cn2c(Cl)c(/C=N/NC(=O)c3ccccc3Cl)sc2=O)c1"
class_name = "inactive"

[[record]]
compound = "COc1ccc(-c2cnnn2-c2ccc(N)cc2)cc1OC"
class_name = "inactive"

[[record]]
compound = "O=C(Nc1ccc(S(=O)(=O)N2CCOCC2)cc1)c1ccc(=O)[nH]c1"
class_name = "inactive"

[[record]]
compound = "CS(=O)(=O)N1CCN(c2ccc([N+](=O)[O-])c(SCc3ccco3)c2)CC1"
class_name = "inactive"

[[record]]
compound = "CCOC(=O)C1(C)C=C(Nc2ccc(O)cc2)C(=O)N1c1ccc(O)cc1 (centres undefined)"
class_name = "inactive"

[[record]]
compound = "Oc1ccc(N=Cc2ccc(OCc3ccccc3)cc2)cc1"
class_name = "inactive"

[[record]]
compound = "CC(=O)c1ccc(S(=O)(=O)Nc2ccc(-c3ccc4nnc(C)n4n3)cc2)cc1"
class_name = "inactive"

[[record]]
compound = "CCOc1ccccc1CNc1ccc(O)cc1"
class_name = "inactive"

[[record]]
compound = "CCCCn1c(NS(=O)(=O)c2ccccc2)c(S(=O)(=O)c2ccc(C)cc2)c2nc3ccccc3nc21"
class_name = "inactive"

[[record]]
compound = "O=S(=O)(Nc1cc2nc3ccccc3nc2n1Cc1ccccc1)c1ccc(Cl)cc1"
class_name = "inactive"


---

- EXPERIMENTAL_SYSTEM: UniProt:Q8IUQ4
- ASSAY_EXPLANATION: Siah-1 peptide-binding antagonists, alternate label, dose response, artefact control for Siah-1 antagonist project, biochemical, fluorescence polarization, fluorescein-plectin (AID 2127)
- CONDITION_DETAILS: Siah-1/fluorescein-plectin binding
Activity calls are given as the source filed them.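 The calls were made as follows: active = half-maximal inhibitory concentration below a set limit; inactive = the rest.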
Possible outcomes: active, inactive

[[record]]
compound = "Cc1coc2c(C)c3oc(=O)c(CCC(=O)N[C@@H](C)C(=O)N[C@@H](Cc4ccccc4)C(=O)O)c(C)c3cc12"
class_name = "inactive"

[[record]]
compound = "O=C(CCn1ccc2ccccc21)NC1CCCc2ccccc21 (centres undefined)"
class_name = "inactive"

[[record]]
compound = "O=c1[nH]c(-c2ccc(F)cc2)nc2c1sc(=S)n2-c1ccccc1"
class_name = "inactive"

[[record]]
compound = "CCOC(=O)/C(C#N)=c1/s/c(=C2\\C=Cc3ccccc3N2CC)c(=O)n1CC"
class_name = "inactive"

[[record]]
compound = "CCCCn1c(NS(=O)(=O)c2ccccc2)c(C(=O)OCC)c2nc3ccccc3nc21"
class_name = "inactive"

[[record]]
compound = "CN(C)c1cccc2c(C=C(C#N)C#N)ccc(N(C)C)c12"
class_name = "inactive"

[[record]]
compound = "N#CC1C=Cc2ccccc2N1C(=O)c1ccccc1 (centres undefined)"
class_name = "inactive"

[[record]]
compound = "Fc1ccc(/C=N/NC(=S)Nc2cccnc2)cc1F"
class_name = "inactive"

[[record]]
compound = "COCCCNc1c2c3c(cccc3[nH]c1=O)C(=O)c1ccccc1-2"
class_name = "inactive"

[[record]]
compound = "COc1cc(CNc2ccc(O)cc2)cc(Br)c1OCc1ccccc1F"
class_name = "inactive"

[[record]]
compound = "CC12CCC(C(=O)NCc3ccc(Cl)cc3)(OC1=O)C2(C)C (centres undefined)"
class_name = "inactive"

[[record]]
compound = "O=C(O)CCCNc1cc(N2CCN(C(=O)c3ccco3)CC2)c2noc3c2c1C(=O)c1ccccc1-3"
class_name = "active"

[[record]]
compound = "CC(C)(C)c1ccc(C(CC(=O)O)NC(=O)Cc2ccc(F)cc2)cc1 (centres undefined)"
class_name = "inactive"

[[record]]
compound = "CC1CCN(S(=O)(=O)c2nnc(NC(=O)c3cccc(Cl)c3)s2)CC1"
class_name = "inactive"


---

- EXPERIMENTAL_SYSTEM: E3 ubiquitin-protein ligase SIAH1 (Homo sapiens)
- ASSAY_EXPLANATION: Siah-1 peptide-binding antagonists, alternate label, dose response, artefact control for Siah-1 antagonist project, biochemical, fluorescence polarization, fluorescein-plectin (AID 2127)
- CONDITION_DETAILS: Siah-1/fluorescein-plectin binding
The source made the active and inactive calls.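 How the source made its calls: active means half-maximal inhibitory concentration below a set limit; inactive means the rest.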
Possible outcomes: active, inactive

[[record]]
compound = "CC(=O)Nc1ccc(N=Cc2c(O)c(C(=O)Nc3ccccc3)cc3ccccc23)cc1"
class_name = "active"

[[record]]
compound = "Cc1ccc(-n2cccn2)c([C@@H]2C[C@H]3CN(C)C(=O)[C@]34CCCN24)c1"
class_name = "inactive"

[[record]]
compound = "CCNc1ccc(C(=O)O)cc1N"
class_name = "inactive"

[[record]]
compound = "O=C(O)c1cc(Cl)c(Cl)cc1C(=O)Nc1cccc2cccnc12"
class_name = "inactive"

[[record]]
compound = "O=C(CCN1CCN(Cc2ccccc2)CC1)Nc1cccc(Cl)c1"
class_name = "inactive"

[[record]]
compound = "CN1C(=O)NC(c2ccccc2[N+](=O)[O-])C2=C1CCCC2=O (configuration not stated)"
class_name = "active"

[[record]]
compound = "CCOc1cc(/C=C(\\C#N)C(=O)Nc2ccccc2C(=O)O)ccc1OC(=O)c1ccc(C)cc1"
class_name = "inactive"

